Please go through the items and note down their speed of sound.
- applied conditions: 323.65 K; 101.33 kPa; Liquid; Pulse-echo method
All answers are understood in m/s, so give the number only.

Problem: Param item = CCC(=O)[O-].C[NH2+]CCO [2-hydroxy-N-methylethanaminium propionate] ; retrieve measured speed of sound.
Solution: 1614.5

Problem: Try CCCC(=O)[O-].C[NH2+]CCO [N-methyl-2-hydroxyethylammonium butanoate] next.
Solution: 1534.7

Problem: Try CC(C)C(=O)[O-].C[NH2+]CCO [2-hydroxy-N-methylethanaminium isobutyrate] next.
Solution: 1539.2

Problem: Try CCCCC(=O)[O-].C[NH2+]CCO [2-hydroxy-N-methylethanaminium pentanoate] next.
Solution: 1470

Problem: Try C[NH2+]CCO.O=C[O-] [2-hydroxy-N-methylethanaminium formate] next.
Solution: 1765.7

* * *

- applied conditions: 304.4 K; 101.33 kPa; Liquid; Vibrating tube method
measured property: mass density (kg/m3)
All answers are understood in kg/m3, so give the number only.

Problem: Param item = CCC(=O)[O-].C[NH2+]CCO [2-hydroxy-N-methylethanaminium propionate] ; retrieve measured mass density.
Solution: 1067.24

Problem: Try CC(C)C(=O)[O-].C[NH2+]CCO [2-hydroxy-N-methylethanaminium isobutyrate] next.
Solution: 1039.36

Problem: Try C[NH2+]CCO.O=C[O-] [2-hydroxy-N-methylethanaminium formate] next.
Solution: 1124.76

Problem: Try CCCC(=O)[O-].C[NH2+]CCO [N-methyl-2-hydroxyethylammonium butanoate] next.
Solution: 1035.04

Problem: Try CCCCC(=O)[O-].C[NH2+]CCO [2-hydroxy-N-methylethanaminium pentanoate] next.
Solution: 1012.03

Problem: Try CC(=O)[O-].C[NH2+]CCO [N-methyl-2-hydroxyethylammonium acetate] next.
Solution: 1097.1

* * *

Please go through the items and note down their speed of sound.
- applied conditions: 321.66 K; 101.33 kPa; Liquid; Pulse-echo method
All answers are understood in m/s, so give the number only.

Problem: Param item = CCCC(=O)[O-].C[NH2+]CCO [N-methyl-2-hydroxyethylammonium butanoate] ; retrieve measured speed of sound.
Solution: 1540.9

Problem: Try CCC(=O)[O-].C[NH2+]CCO [2-hydroxy-N-methylethanaminium propionate] next.
Solution: 1620.4

Problem: Try CC(C)C(=O)[O-].C[NH2+]CCO [2-hydroxy-N-methylethanaminium isobutyrate] next.
Solution: 1544.9

Problem: Try C[NH2+]CCO.O=C[O-] [2-hydroxy-N-methylethanaminium formate] next.
Solution: 1769.6

Problem: Try CCCCC(=O)[O-].C[NH2+]CCO [2-hydroxy-N-methylethanaminium pentanoate] next.
Solution: 1476.1

* * *

- applied conditions: 300.4 K; 101.33 kPa; Liquid; Pulse-echo method
measured property: speed of sound (m/s)
All answers are understood in m/s, so give the number only.

Problem: Param item = CCCC(=O)[O-].C[NH2+]CCO [N-methyl-2-hydroxyethylammonium butanoate] ; retrieve measured speed of sound.
Solution: 1607.4

Problem: Try C[NH2+]CCO.O=C[O-] [2-hydroxy-N-methylethanaminium formate] next.
Solution: 1810.9

Problem: Try CC(C)C(=O)[O-].C[NH2+]CCO [2-hydroxy-N-methylethanaminium isobutyrate] next.
Solution: 1604.9

Problem: Try CCC(=O)[O-].C[NH2+]CCO [2-hydroxy-N-methylethanaminium propionate] next.
Solution: 1683.3

Problem: Try CCCCC(=O)[O-].C[NH2+]CCO [2-hydroxy-N-methylethanaminium pentanoate] next.
Solution: 1541.7
